B1: TRAF3IP2 (parent)
chain: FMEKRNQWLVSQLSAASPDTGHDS

# Variants of: B1
# procedure.text: protein stability index of a GFP-peptide fusion (GPS, HEK-293T) (PSI 1-6); higher = more stable;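 further: lentivirally expressed fusions sorted by FACS into six bins by GFP to DsRed ratio, PSI derived from sequencing read proportions per bin multiplied by bin number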
# details: c terminus: a fixed tail appended
recorded.metric: protein stability index
Please respond with just the number, no unit label.

L13K
2.84
T20E
1.75
F1M
3.56
L13R
3.01
T20K
2.47
V10R
3.28

Ask: Which protein stability index is listed for `D19C` ?
Result: 2.45

Ask: # get_value(readout='protein stability index', item= `S24I` )
Result: 2.1
